test system: RARb homodimer (NR concentration 270 nM); assay: PBM binding z-score (relative to random genomic background probes); higher = stronger binding; sequences stand for … in GC…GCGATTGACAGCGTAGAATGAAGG
attribute measured: PBM binding z-score

[[record]]
input_sequence = "GAACCAAGGTGAATAGGTCGTTGATGAGTAGGCG"
study_target = "RARb homodimer (NR concentration 270 nM)"
number = 1.78

[[record]]
input_sequence = "ATATGTGGGTTACATCCGGGTCATTCAGGCTATG"
study_target = "RARb homodimer (NR concentration 270 nM)"
number = 2.79

[[record]]
input_sequence = "CATACAGGGTCAGCTAGACCAGAGTAGGGACGGC"
study_target = "RARb homodimer (NR concentration 270 nM)"
number = 2.81

[[record]]
input_sequence = "CGTCAAAGTTCAACGTAACGTAACAGAAAGCAGC"
study_target = "RARb homodimer (NR concentration 270 nM)"
number = 3.83

[[record]]
input_sequence = "TCGAGTAGGTTAGTCGGGGCATTCAACCAACATA"
study_target = "RARb homodimer (NR concentration 270 nM)"
number = 0.661

[[record]]
input_sequence = "CCTTACGGGTCAATCCAGGTTATAGCATCGGAGT"
study_target = "RARb homodimer (NR concentration 270 nM)"
number = 3

[[record]]
input_sequence = "ACTAGCAGGCCAAGTTTGCGTCACTCAAACAAAG"
study_target = "RARb homodimer (NR concentration 270 nM)"
number = 0.00722

[[record]]
input_sequence = "ATCGAAAGGTCGACGAGGTAAGTATACACCGTTT"
study_target = "RARb homodimer (NR concentration 270 nM)"
number = 2.39

[[record]]
input_sequence = "GCTCGGAGGACCAGGTCAGAGCTTTGTCCGTAGA"
study_target = "RARb homodimer (NR concentration 270 nM)"
number = 1.34

[[record]]
input_sequence = "TCTTGAAGATCAAGCAGGTTAAGAAAGCCTGAGT"
study_target = "RARb homodimer (NR concentration 270 nM)"
number = -0.113

[[record]]
input_sequence = "ACTAGCTGGCCAAGTTTGGGTCACTCAAACAAAG"
study_target = "RARb homodimer (NR concentration 270 nM)"
number = 1.35

[[record]]
input_sequence = "TCATATAGGTAAATGCTAGGTGTAAGTCCGATCT"
study_target = "RARb homodimer (NR concentration 270 nM)"
number = -0.036

[[record]]
input_sequence = "CCTTACGGGACACGAGGTTATAGCACGACGAGCG"
study_target = "RARb homodimer (NR concentration 270 nM)"
number = 1.03

[[record]]
input_sequence = "TCTTGTAGATCAGCAGGTTAAGTAAGCTGGCCAA"
study_target = "RARb homodimer (NR concentration 270 nM)"
number = 0.124

[[record]]
input_sequence = "GCATATAGGTAAGACAAGGTGAAAGTCCGATTGT"
study_target = "RARb homodimer (NR concentration 270 nM)"
number = 0.617

[[record]]
input_sequence = "AGAAGGAGGTTAAGATCAGGGAAACAGAATACAT"
study_target = "RARb homodimer (NR concentration 270 nM)"
number = 1.51

[[record]]
input_sequence = "TTACCAACGTGAAGGTCGTTGATCCCTCTGTAGA"
study_target = "RARb homodimer (NR concentration 270 nM)"
number = 1.24

[[record]]
input_sequence = "TAGCGTAGGTCATTGGGCCAGTATAGTACGCATC"
study_target = "RARb homodimer (NR concentration 270 nM)"
number = 2.8

[[record]]
input_sequence = "CCGACTGCGGCAAGGTTACCATAACGCACAGCCA"
study_target = "RARb homodimer (NR concentration 270 nM)"
number = 1

[[record]]
input_sequence = "TCATATAGGTAAAGCTGAAAGTCGAACGATATGA"
study_target = "RARb homodimer (NR concentration 270 nM)"
number = -0.67

[[record]]
input_sequence = "CGTCCAAGGCCAGCAGGTCAGTGAAAGCGACGTG"
study_target = "RARb homodimer (NR concentration 270 nM)"
number = 2.34

[[record]]
input_sequence = "ATCGAAAGGTCGAAGCTGAGTATACCCACCCGAA"
study_target = "RARb homodimer (NR concentration 270 nM)"
number = 2.18

[[record]]
input_sequence = "ACTTCCGGGTCAACGAGGTTATAGCACGCGTATA"
study_target = "RARb homodimer (NR concentration 270 nM)"
number = 3.44

[[record]]
input_sequence = "CCTGCTAGGTCATGGTAAGCTAATCTACAGTATG"
study_target = "RARb homodimer (NR concentration 270 nM)"
number = 2.79

[[record]]
input_sequence = "CCTCGGAGGACAACAGGAGGTCTGAGCTGCCAGA"
study_target = "RARb homodimer (NR concentration 270 nM)"
number = 0.507

[[record]]
input_sequence = "TAGCCTAGGTCAGATCGGGCCAGTATGCGCTATA"
study_target = "RARb homodimer (NR concentration 270 nM)"
number = 2.29

[[record]]
input_sequence = "CGAACTAGGTCAAGGACAGTGGATCTCCGCACGC"
study_target = "RARb homodimer (NR concentration 270 nM)"
number = 3.1

[[record]]
input_sequence = "GCTGCTAGGTCAAATGATGGTCAGCTAAAGCTCG"
study_target = "RARb homodimer (NR concentration 270 nM)"
number = 3.24

[[record]]
input_sequence = "CCTAGTTGGTCAAGGTCACAAACGCTATAGGTAC"
study_target = "RARb homodimer (NR concentration 270 nM)"
number = 4

[[record]]
input_sequence = "CGTCAAAGTTCAACTAAGGTAACCTAAAGCACGC"
study_target = "RARb homodimer (NR concentration 270 nM)"
number = 4.36

[[record]]
input_sequence = "GCTATTAGTTCAAAGGGCAACCGAATGATTCTCG"
study_target = "RARb homodimer (NR concentration 270 nM)"
number = 2.95

[[record]]
input_sequence = "GCGACTGGGGCAAAGCATGTTACCATAAGGTTGG"
study_target = "RARb homodimer (NR concentration 270 nM)"
number = 0.192

[[record]]
input_sequence = "TCGAGTAGGTTACCAATGGGGCATTTAGCTTTCT"
study_target = "RARb homodimer (NR concentration 270 nM)"
number = 0.597

[[record]]
input_sequence = "TGAATGCGGTTATAAGATCAGGGAACGTTGCAAA"
study_target = "RARb homodimer (NR concentration 270 nM)"
number = -0.46

[[record]]
input_sequence = "TCATATAGGTAAACAGGTGAAAGTCCGTAAGTTA"
study_target = "RARb homodimer (NR concentration 270 nM)"
number = 0.747

[[record]]
input_sequence = "CCTATTAGTTGGCCATAAGGGCAACCGAAGCTCG"
study_target = "RARb homodimer (NR concentration 270 nM)"
number = 1.46

[[record]]
input_sequence = "CCTATTAGTTGACCATAAGGACAACCGAAGCTCG"
study_target = "RARb homodimer (NR concentration 270 nM)"
number = 1.71

[[record]]
input_sequence = "CAAACTAGGTCATCGGAAGGTCAAAGTCCGCATG"
study_target = "RARb homodimer (NR concentration 270 nM)"
number = 5.46

[[record]]
input_sequence = "ACTATTAGTTGAGGCGAGGGCAACCGATAGGTTG"
study_target = "RARb homodimer (NR concentration 270 nM)"
number = 1.3

[[record]]
input_sequence = "ATCTCTAGGTAAAGATAGTTCAGTCAATGCAAAT"
study_target = "RARb homodimer (NR concentration 270 nM)"
number = 0.999

[[record]]
input_sequence = "GTACCAAGGTGAATTGGTCGTTGATGAGTAGGCG"
study_target = "RARb homodimer (NR concentration 270 nM)"
number = 0.471

[[record]]
input_sequence = "ACTAGCAGGCTAAGTTTGGGTCACTCAAACAAAG"
study_target = "RARb homodimer (NR concentration 270 nM)"
number = 1.72

[[record]]
input_sequence = "CCGACTGGGGCATAAGGTTTCCATAAGCCAGCCC"
study_target = "RARb homodimer (NR concentration 270 nM)"
number = -0.165

[[record]]
input_sequence = "ACTTACGGGTCACCGAGGTTATAGCACGCGTATA"
study_target = "RARb homodimer (NR concentration 270 nM)"
number = 4.01

[[record]]
input_sequence = "GGAACGAGGGCATTCGAGTTTATAGCATGGCGAT"
study_target = "RARb homodimer (NR concentration 270 nM)"
number = 0.829

[[record]]
input_sequence = "CCTTTCGGGTCAAGGTTATAGCACGGGTGGTACG"
study_target = "RARb homodimer (NR concentration 270 nM)"
number = 3.76

[[record]]
input_sequence = "GGAACGAGGGCAAAGCTGATAGCATCTGTCGACG"
study_target = "RARb homodimer (NR concentration 270 nM)"
number = 0.567

[[record]]
input_sequence = "ATAATGAGGTTAAGATCAGGGAAACAGAATACAT"
study_target = "RARb homodimer (NR concentration 270 nM)"
number = 0.864

[[record]]
input_sequence = "ACTATTAGTTGAGAGGAGGGCAACCGATAGGTTG"
study_target = "RARb homodimer (NR concentration 270 nM)"
number = 1.1

[[record]]
input_sequence = "AATACAGGGTCACTATGCCAGAGTAGGTACGAAT"
study_target = "RARb homodimer (NR concentration 270 nM)"
number = 2.83

[[record]]
input_sequence = "ATATGTAGGTGATCGGGTCATTCAGTTTGCGCAT"
study_target = "RARb homodimer (NR concentration 270 nM)"
number = 2.55

